procedureSummary: Reversal of P-gp-mediated drug resistance in human KBV cells assessed as potentiation of paclitaxel-induced cytotoxicity by measuring paclitaxel IC50 at 10 uM after 24 hrs by MTT assay (Rvb = 3837.57 uM)
readoutLabel: IC50 (nM)
Write down the numeric answer in nM and omit the unit.

Lookup: Record request: IC50 value, item CN(C)CCCOC(=O)[C@]12CCC(C)(C)C[C@H]1C1=CC[C@@H]3[C@@]4(C)Cc5nccnc5[C@@](C)(CO)[C@@H]4CC[C@@]3(C)[C@]1(C)CC2
Found: 35

###

procedureSummary: Reversal of P-gp-mediated drug resistance in human KBV cells assessed as potentiation of paclitaxel-induced cytotoxicity by measuring paclitaxel IC50 at 5 uM after 72 hrs by MTT assay (Rvb = 398.34 +/- 0.58 uM)
readoutLabel: pIC50
Expect pIC50 as a plain number equal to -log10 of the molar concentration.

Lookup: Recorded pIC50 for CN(C)CCCOC(=O)[C@]12CCC(C)(C)C[C@H]1C1=CC[C@@H]3[C@@]4(C)Cc5nccnc5[C@@](C)(CO)[C@@H]4CC[C@@]3(C)[C@]1(C)CC2 , please?
Found: 7.91

###

procedureSummary: Reversal of P-gp-mediated drug resistance in human KBV cells assessed as potentiation of paclitaxel-induced cytotoxicity by measuring paclitaxel IC50 at 5 uM after 24 hrs by MTT assay (Rvb = 3837.57 uM)
readoutLabel: IC50 (nM)
# value in nM; strip the unit string

Lookup: # query: IC50 of entry CN(C)CCCOC(=O)[C@]12CCC(C)(C)C[C@H]1C1=CC[C@@H]3[C@@]4(C)Cc5nccnc5[C@@](C)(CO)[C@@H]4CC[C@@]3(C)[C@]1(C)CC2
Found: 49.8

###

procedureSummary: Reversal of P-gp-mediated drug resistance in human KBV cells assessed as potentiation of paclitaxel-induced cytotoxicity by measuring paclitaxel IC50 at 10 uM
readoutLabel: pIC50
In simple prose, pIC50 is minus the logarithm base ten of a concentration in moles per litre.

Lookup: Could you tell me which pIC50 is on file for CC1(C)CC[C@]2(C(=O)OCc3ccccc3)CC[C@]3(C)C(=CC[C@@H]4[C@@]5(C)Cc6nccnc6[C@@](C)(CO)[C@@H]5CC[C@]43C)[C@@H]2C1 ?
Found: 8.62
